B1: TPR 5TU (parent)
chain: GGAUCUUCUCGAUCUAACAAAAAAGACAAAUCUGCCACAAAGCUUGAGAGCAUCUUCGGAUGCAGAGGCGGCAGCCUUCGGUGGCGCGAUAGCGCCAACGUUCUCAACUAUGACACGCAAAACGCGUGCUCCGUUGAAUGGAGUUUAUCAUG

variants of: B1; assay: polymerase ribozyme fitness, log enrichment relative to wild type (log ratio); higher = more active; in vitro selection for triplet polymerase activity
Fewer inactive variants are shown than the library holds.

>  <residue.change>
G84A U101A A115U A121G G124A

>  <polymerase ribozyme fitness (log ratio)>
≤ -4.2

$$$$
>  <residue.change>
C38U A52G C93G G117U

>  <polymerase ribozyme fitness (log ratio)>
-3.91

$$$$
>  <residue.change>
A17G G83U U134A

>  <polymerase ribozyme fitness (log ratio)>
-2.39

$$$$
>  <residue.change>
G70U C76A

>  <polymerase ribozyme fitness (log ratio)>
-4.19

$$$$
>  <residue.change>
C8G A20C A73U C99G A106G G140A U144G A147C

>  <polymerase ribozyme fitness (log ratio)>
≤ -4.2

$$$$
>  <residue.change>
C8U A41C G46C G71A G83U C116G

>  <polymerase ribozyme fitness (log ratio)>
≤ -4.2

$$$$
>  <residue.change>
U4C G58U C75A A91U U104G U144A C149U

>  <polymerase ribozyme fitness (log ratio)>
≤ -4.2

$$$$
>  <residue.change>
C32U A52U U90C G128C

>  <polymerase ribozyme fitness (log ratio)>
≤ -4.2

$$$$
>  <residue.change>
C27U A39C G50U C123A

>  <polymerase ribozyme fitness (log ratio)>
≤ -4.2

$$$$
>  <residue.change>
C57A G124U

>  <polymerase ribozyme fitness (log ratio)>
-0.787

$$$$
>  <residue.change>
A17G A21G C57U C96A A137U A138G

>  <polymerase ribozyme fitness (log ratio)>
≤ -4.2

$$$$
>  <residue.change>
C85A G94C A121C

>  <polymerase ribozyme fitness (log ratio)>
-1.84

$$$$
>  <residue.change>
C10G A40U A64U C76G C85A G117U G136A G143A

>  <polymerase ribozyme fitness (log ratio)>
≤ -4.2

$$$$
>  <residue.change>
C5G C96U

>  <polymerase ribozyme fitness (log ratio)>
-0.763

$$$$
>  <residue.change>
G92A

>  <polymerase ribozyme fitness (log ratio)>
-2.51

$$$$
>  <residue.change>
U7G G74A C103A

>  <polymerase ribozyme fitness (log ratio)>
≤ -4.2

$$$$
>  <residue.change>
G46U G68C G94C

>  <polymerase ribozyme fitness (log ratio)>
≤ -4.2

$$$$
>  <residue.change>
U9A U55A C85U G94A C114U G140C

>  <polymerase ribozyme fitness (log ratio)>
≤ -4.2

$$$$
>  <residue.change>
C35A C43U A49U A64G C76U C96A U101G C149U

>  <polymerase ribozyme fitness (log ratio)>
≤ -4.2

$$$$
>  <residue.change>
C5U A52U G67U C93U C96U A115C

>  <polymerase ribozyme fitness (log ratio)>
≤ -4.2

$$$$
>  <residue.change>
G42U U56A G58A C76U C95G A98G

>  <polymerase ribozyme fitness (log ratio)>
≤ -4.2

$$$$
>  <residue.change>
U6C A89G C96U U135C G140U

>  <polymerase ribozyme fitness (log ratio)>
≤ -4.2

$$$$
>  <residue.change>
A23C C27G A60G A97C G124U

>  <polymerase ribozyme fitness (log ratio)>
≤ -4.2

$$$$
>  <residue.change>
G50A G83C C93G A97C C132G A137G G140U

>  <polymerase ribozyme fitness (log ratio)>
≤ -4.2

$$$$
>  <residue.change>
G71U C116U

>  <polymerase ribozyme fitness (log ratio)>
-2.4

$$$$
>  <residue.change>
G71U G84A

>  <polymerase ribozyme fitness (log ratio)>
-2.59

$$$$
>  <residue.change>
A24U C93U G136A

>  <polymerase ribozyme fitness (log ratio)>
-1.47

$$$$
>  <residue.change>
A16C A73U G88C C95G A98U

>  <polymerase ribozyme fitness (log ratio)>
≤ -4.2

$$$$
>  <residue.change>
U55G A73U

>  <polymerase ribozyme fitness (log ratio)>
-2.35

$$$$
>  <residue.change>
C8G U55G C72U G84U G136A

>  <polymerase ribozyme fitness (log ratio)>
≤ -4.2

$$$$
>  <residue.change>
A20G A22U G59A C93G A98G A137G U139G

>  <polymerase ribozyme fitness (log ratio)>
≤ -4.2

$$$$
>  <residue.change>
A19U G46U A89C

>  <polymerase ribozyme fitness (log ratio)>
-2.83

$$$$
